Test system: primary AML samples
Experiment: Ex vivo drug sensitivity of primary AML samples, MTS, 72 h
Assay type: cell-based, human
Conditions: Homo sapiens, read-out: IC50 estimate, probit mixed effects population curve, FLT3 mutation-positive samples
value-type: IC50 (nM)
// note: answer is a bare numeric in nM

Prompt line: Any idea what IC50 was measured for C1=C/COCc2cc(ccc2OCCN2CCCC2)Nc2nccc(n2)-c2cccc(c2)COC/1 [pacritinib] ?
Response line: 68
